# ASSAY TARGET: ENPP1 (Homo sapiens, UniProt P22413)
# METHOD DESCRIPTION: ENPP1 enzyme assay with AMP-pNP substrate (hydrolysis of ATP analog)
# Assay type: biochemical
# RUN PARAMETERS: AMP-pNP substrate (ATP analog); Ki from IC50 by Cheng-Prusoff; read-out: ENPP1 Inhibition _AMP-pNP: Ki
# Method: The ENPP1 assay with AMP-pNP substrate is conducted in a buffer containing 50 mM Tris-HCl (pH 8.5)/ 250 mM NaCl/0.5 mM CaCl2/1 µM ZnCl2/0.1% DMSO. Inhibitors are added at final concentrations ranging between 10 µM and 30 pM depending on the compound. […] The percent inhibition of ENPP1 for each sample is then calculated as: […] IC50 values of compounds were calculated by entering the percent inhibition values into a sigmoidal variable slope nonlinear regression model in GraphPad Prism® software.
The molecules listed here are annotated with their Ki.

> print(dat)
                                smiles.text                          assay.target  measure  readout.value
1  COc1cc2nccc(N3CCC(CCNS(=O)(=O)NC(C)=O)CC3)c2cc1OC  ENPP1 (Homo sapiens, UniProt P22413)       Ki         > 1 µM
2  COc1ccc2c(Oc3ccc(NS(N)(=O)=O)cc3)ccnc2n1  ENPP1 (Homo sapiens, UniProt P22413)       Ki       < 0.1 µM
3  COc1ccc2c(N3CCc4cc(NS(N)(=O)=O)ccc43)ccnc2c1F  ENPP1 (Homo sapiens, UniProt P22413)       Ki         > 1 µM
4  COc1ccc2c(-c3ccc(CN(C)S(N)(=O)=O)cc3)ccnc2c1  ENPP1 (Homo sapiens, UniProt P22413)       Ki    0.1 to 1 µM

# evaluate next
Form field Ki, entry "COc1cc2c(N3CCC(CCNS(N)(=O)=O)CC3)ncnc2cn1" : > 1 µM

---

The molecules listed here are annotated with their pKi.
# ASSAY TARGET: ENPP1 (Homo sapiens)
# METHOD DESCRIPTION: ENPP1 enzyme assay with AMP-pNP substrate (hydrolysis of ATP analog)
# Format: biochemical
# RUN PARAMETERS: AMP-pNP substrate (ATP analog); Ki from IC50 by Cheng-Prusoff; read-out: ENPP1 Inhibition _AMP-pNP: Ki
pKi: −log10 of the molar value.

Below, 3 molecules whose answers are already recorded.
> print(dat)
                                   molecule  readout.value
1  COc1ccc2c(Nc3ccc(NS(N)(=O)=O)cc3)ccnc2n1         > 7.00
2  COc1cc2ncc(C3CC3)c(-c3ccc4c(c3)CN(S(N)(=O)=O)CC4)c2cc1OC         > 7.00
3  COc1ccc2c(-c3ccc(CNS(N)(=O)=O)c(C)c3)ccnc2c1         < 6.00

Form field pKi, entry "COc1cc2ncnc(N3CCc4c(cccc4NS(N)(=O)=O)C3)c2cc1OC" : 6.00 to 7.00

Form field pKi, entry COc1ccc2c(-c3ccc(C(C)NS(N)(=O)=O)cc3)ccnc2c1 (stereo not drawn) : 6.00 to 7.00

---

# ASSAY TARGET: ENPP1 (Homo sapiens)
# Sequence (P22413 1-925): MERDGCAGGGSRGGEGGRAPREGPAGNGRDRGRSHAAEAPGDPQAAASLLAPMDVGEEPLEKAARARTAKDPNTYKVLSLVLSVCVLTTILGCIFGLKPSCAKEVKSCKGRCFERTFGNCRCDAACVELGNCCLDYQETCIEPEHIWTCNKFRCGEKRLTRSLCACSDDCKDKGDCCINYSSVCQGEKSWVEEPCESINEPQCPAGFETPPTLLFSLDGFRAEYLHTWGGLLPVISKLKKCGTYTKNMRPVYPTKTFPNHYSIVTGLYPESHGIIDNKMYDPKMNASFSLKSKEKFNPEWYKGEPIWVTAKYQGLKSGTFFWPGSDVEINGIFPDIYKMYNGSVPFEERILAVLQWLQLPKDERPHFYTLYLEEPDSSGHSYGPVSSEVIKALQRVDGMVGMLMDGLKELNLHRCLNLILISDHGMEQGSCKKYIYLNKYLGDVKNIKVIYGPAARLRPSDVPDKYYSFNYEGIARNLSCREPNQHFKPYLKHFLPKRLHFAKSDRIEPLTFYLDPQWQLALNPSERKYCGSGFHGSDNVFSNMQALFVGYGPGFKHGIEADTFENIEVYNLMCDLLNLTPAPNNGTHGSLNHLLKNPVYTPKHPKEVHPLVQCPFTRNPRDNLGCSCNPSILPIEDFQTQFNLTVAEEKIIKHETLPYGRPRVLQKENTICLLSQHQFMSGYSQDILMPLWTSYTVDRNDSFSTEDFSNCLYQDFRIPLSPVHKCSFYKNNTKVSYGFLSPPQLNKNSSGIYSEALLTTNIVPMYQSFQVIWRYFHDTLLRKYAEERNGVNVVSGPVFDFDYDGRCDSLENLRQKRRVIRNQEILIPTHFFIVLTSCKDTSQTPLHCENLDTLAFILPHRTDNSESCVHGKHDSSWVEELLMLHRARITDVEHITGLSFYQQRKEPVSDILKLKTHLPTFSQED
# METHOD DESCRIPTION: ENPP1 enzyme assay with cGAMP substrate (AMP-Glo)
# Assay type: biochemical
# Set-up: purchased R&D Systems
# RUN PARAMETERS: read-out: cGAMP: % Inhibition at 1 µM
The compounds listed here are annotated with their inhibition at 1 µM.

> print(dat)
                                   compound  readout.value
1  NS(=O)(=O)NCCC1CCN(c2ncnc3c2cnn3-c2ccccc2)CC1 [Example 26]          < 25%

Form field inhibition at 1 µM, entry NS(=O)(=O)NCCC1CCN(c2ccnc(Nc3ccccn3)n2)CC1 [Example 11] : < 25%

Form field inhibition at 1 µM, entry NS(=O)(=O)NCCC1CCN(c2ccnc(Nc3cccnc3)n2)CC1 [Example 12] : < 25%

Form field inhibition at 1 µM, entry COc1cc2nc(-c3cccnc3)nc(N3CCC(CCNS(N)(=O)=O)CC3)c2cc1OC [Example 5] : 50 to 75%
